This section presents variants with their documented protein stability index values.
B1: C2CD2L (parent)
chain: EPAGSLRELGVWRSLLRLRATRAG

- Variants of: B1
- protocol-summary: protein stability index of a GFP-peptide fusion (GPS, HEK-293T) (PSI 1-6); higher = more stable;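 further: lentivirally expressed fusions sorted by FACS into six bins by GFP to DsRed ratio, PSI derived from sequencing read proportions per bin multiplied by bin number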
- test-conditions: c terminus: a fixed tail appended
Respond numerically, and do not add a unit to the figure.

Recorded protein stability index, per entry:
# mutation-annotation, observed-property, endpoint-result
data = [
    ("G10M", "protein stability index", 1.99),
    ("S5V", "protein stability index", 2.04),
    ("P2R", "protein stability index", 2.41),
    ("G24D", "protein stability index", 2.66),
    ("T21I", "protein stability index", 2.84),
]

Lookup: Report protein stability index for `G4E` please.
Found: 3.52

Lookup: Report protein stability index for `A23F` please.
Found: 1.07

Lookup: Report protein stability index for `A3M` please.
Found: 2.19
